Numbers sourced from patent US20260265403A1.

Biological target: T1, Human CD24 (human, UniProt P25063 27-59, limits assumed)
T1 chain (looked up): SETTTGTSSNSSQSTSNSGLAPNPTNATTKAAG
Test: SPR affinity ranking, 1:1 binding, analyte conc. 19.71 nM
Below: a set of entries, each annotated with reported koff.

Binder	koff
Antibody No 7, lead clone of 4451H (HC N35G; LC T97I) (antibody, V domains shown) VH: QVQLVQSGAEVKKPGASVKVSCKASGYDFTGYHMGWVRQAPGQGLEWMGEINPITSDKTFNQKFKSRVTMTRDTSISTAYMELSRLRSDDTAVYYCARRDYGTSLDYWGQGTTVTVSS VL: DIQLTQSPSFLSASVGDRVTITCRASKSISKYLAWYQQKPGKAPKLLIYAGSTLHSGIPSRFRGSGSGTEFTLTISSLQPEDFATYYCQQHNEYPIIFGQGTKLEIK	0.0141 s⁻¹
Antibody No 11, lead clone of 4451H (HC T59Y; LC K27A) (antibody, V domains shown) VH: QVQLVQSGAEVKKPGASVKVSCKASGYDFTGYHMNWVRQAPGQGLEWMGEINPITSDKYFNQKFKSRVTMTRDTSISTAYMELSRLRSDDTAVYYCARRDYGTSLDYWGQGTTVTVSS VL: DIQLTQSPSFLSASVGDRVTITCRASASISKYLAWYQQKPGKAPKLLIYAGSTLHSGIPSRFRGSGSGTEFTLTISSLQPEDFATYYCQQHNEYPITFGQGTKLEIK	0.0171 s⁻¹

Turning to the following binder.
Inquiry: Answer with reported koff of Antibody No 5, lead clone of 4451H (HC N35G; LC S30K) (antibody, V domains shown) VH: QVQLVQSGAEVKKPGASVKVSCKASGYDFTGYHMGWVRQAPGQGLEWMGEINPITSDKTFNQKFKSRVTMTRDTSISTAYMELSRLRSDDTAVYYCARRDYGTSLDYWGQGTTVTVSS VL: DIQLTQSPSFLSASVGDRVTITCRASKSIKKYLAWYQQKPGKAPKLLIYAGSTLHSGIPSRFRGSGSGTEFTLTISSLQPEDFATYYCQQHNEYPITFGQGTKLEIK
Reply text: 0.0345 s⁻¹
